- procedure_details: Antioxidant activity assessed as ABTS free radical scavenging activity at 50 uM
- Type: functional
# strict inequality: Activity < 6 µM/min yields YES, everything else yields NO

### Prompt Is it true that Activity reported for `CCOC(=O)/C(=C/c1ccc(O)c(OC)c1)C(C)=O` is less than 6 µM/min?
### Response YES

====

- procedure_details: Antioxidant activity against AAPH-induced hemolysis in human erythrocytes assessed as inhibition time
- Type: functional, Erythrocyte
# reported Time; entries follow
Express the result in min but write the number alone.

The examples below pair each entry with its known result.
molecule=COc1cc(/C=C/C(=O)CC(C)=O)ccc1O result_value=2.38
molecule=CCOC(=O)/C(=C/c1ccc(O)c(OC)c1)C(C)=O result_value=1.83
molecule="COc1cc(/C=C/C(O)CC(C)O)ccc1O (configuration not stated)" result_value=2.05
molecule=COc1cc(/C=C/C(=O)CC(=O)/C=C/c2ccc(O)c(OC)c2)ccc1O result_value=3.45
molecule=COc1cc(CCC(=O)CC(C)=O)ccc1O result_value=3.48
molecule=COc1cc(/C=C/C(=O)CC(C)=O)ccc1OCc1ccccc1 result_value=3.3

Could you now consider this next molecule?
### Prompt Quick one: give measured Time for `CC(=O)CC(=O)/C=C/c1ccc(O)c(O)c1`
### Response 3.92

Each recorded value in this set is attributed to ChEMBL document CHEMBL1759874.
